The measurements presented in this section are drawn from ChEMBL document CHEMBL4706708.

- Test system: MDA-MB-231
- test: Antiproliferative activity against human MDA-MB-231 cells assessed as cell growth at 1 uM measured after 3 days by [3H]-thymidine incorporation assay relative to control
- Assay type: functional
- test parameters: MDA-MB-231, 72 h, time 3 day, read-out: Activity
# growth at 1 µM listing for each entry below
# unit: % | format: bare number

Worked set:
molecule | growth at 1 µM (%)
Nc1c(C(=O)Nc2ccncc2)sc2nc3c(cc12)C(=O)CCC3 | 108
CN1CCc2nc3sc(C(=O)Nc4ccccc4)c(N)c3cc2C1 | 91.2
CC(=O)c1cc2c(N)c(C(=O)Nc3cccc4ncccc34)sc2nc1C | 98.7
CC(=O)c1cc2c(N)c(C(=O)Nc3ccccc3Cl)sc2nc1C | 99.6
Cc1c(F)cccc1NC(=O)c1sc2nc3c(cc2c1N)CN(Cc1ccccc1)CC3 | 97.3
CC(=O)c1cc2c(N)c(C(=O)Nc3cccc(C)c3C)sc2nc1C | 8.9

Problem: I'd like to know its growth at 1 µM. The molecule in question is Nc1c(C(=O)Nc2ccnc3ccccc23)sc2nc3c(cc12)CN(Cc1ccccc1)CC3
Solution: 104

###

- test: Thermodynamic solubility of compound in water measured after 15 mins RP-HPLC analysis
- Format: physicochemical
- test parameters: read-out: Therm_solubility
# solubility thermodynamic at 0.25 h listing for each entry below
# unit: µg/mL | format: bare number

Worked set:
compound | solubility thermodynamic at 0.25 h / µg/mL
Nc1c(C(=O)Nc2cccc3cccnc23)sc2nc3c(cc12)C(=O)CCC3 | 0.44
Nc1c(C(=O)Nc2cncc3ccccc23)sc2nc3c(cc12)C(=O)CCC3 | 0.71
Nc1c(C(=O)Nc2ccnc3ccccc23)sc2nc3c(cc12)CN(Cc1ccccc1)CC3 | 3.83
Cc1nc2sc(C(=O)Nc3ccccc3)c(N)c2cc1C(C)O (stereo unspecified) | 3.51

Problem: I'd like to know its solubility thermodynamic at 0.25 h. The compound in question is CC(=O)c1cc2c(N)c(C(=O)Nc3cccc(C(F)(F)F)c3C)sc2nc1C
Solution: 1.17

Problem: I'd like to know its solubility thermodynamic at 0.25 h. The compound in question is Nc1c(C(=O)Nc2cccc3ccncc23)sc2nc3c(cc12)CN(Cc1ccccc1)CC3
Solution: 2.79

Problem: I'd like to know its solubility thermodynamic at 0.25 h. The compound in question is Nc1c(C(=O)Nc2cccc3ccccc23)sc2nc3c(cc12)CN(Cc1ccccc1)CC3
Solution: 3.97

###

# growth at 1 µM listing for each entry below
- System: MDA-MB-231
- test: Antiproliferative activity against human MDA-MB-231 cells assessed as cell growth at 1 uM measured after 3 days by [3H]-thymidine incorporation assay relative to control
- Assay type: functional
- test parameters: MDA-MB-231, 72 h, time 3 day, read-out: Activity
# unit: % | format: bare number

compound | readout label | recorded number
Nc1c(C(=O)Nc2cccc3ccccc23)sc2nc3c(cc12)COCC3 | growth at 1 µM | 78.3
COc1ccc(NC(=O)c2sc3nc4c(cc3c2N)COCC4)cc1 | growth at 1 µM | 83.9
CC(=O)c1cc2c(N)c(C(=O)Nc3cccc(Cl)c3)sc2nc1C | growth at 1 µM | 102

Problem: I'd like to know its growth at 1 µM. The compound in question is CC(=O)c1cc2c(N)c(C(=O)Nc3ccccn3)sc2nc1C
Solution: 92.9

Problem: I'd like to know its growth at 1 µM. The compound in question is COc1cccc(NC(=O)c2sc3nc(C)c(C(C)=O)cc3c2N)c1
Solution: 96

Problem: I'd like to know its growth at 1 µM. The compound in question is Cc1nc2sc(C(=O)Nc3ccccn3)c(N)c2cc1C(C)O (configuration not stated)
Solution: 93.8

Problem: I'd like to know its growth at 1 µM. The compound in question is Cc1ccccc1NC(=O)c1sc2nc3c(cc2c1N)CN(Cc1ccccc1)CC3
Solution: 109

Problem: I'd like to know its growth at 1 µM. The compound in question is COc1cccc(NC(=O)c2sc3nc(C)c(C(C)=O)cc3c2N)c1C
Solution: 99.7

Problem: I'd like to know its growth at 1 µM. The compound in question is Cc1ccccc1NC(=O)c1sc2nc3c(cc2c1N)COCC3
Solution: 103

Problem: I'd like to know its growth at 1 µM. The compound in question is Cc1nc2sc(C(=O)Nc3cccc4ccccc34)c(N)c2cc1C(C)O (configuration not stated)
Solution: 9.9

Problem: I'd like to know its growth at 1 µM. The compound in question is Nc1c(C(=O)Nc2cccc3ccccc23)sc2nc3c(cc12)CN(Cc1ccccc1)CC3
Solution: 19.3
